Entry source: patent US11878975B2

# ASSAYED_SYSTEM: human TLR9 (Homo sapiens, UniProt Q9NR96)
# Sequence (Q9NR96 26-1032): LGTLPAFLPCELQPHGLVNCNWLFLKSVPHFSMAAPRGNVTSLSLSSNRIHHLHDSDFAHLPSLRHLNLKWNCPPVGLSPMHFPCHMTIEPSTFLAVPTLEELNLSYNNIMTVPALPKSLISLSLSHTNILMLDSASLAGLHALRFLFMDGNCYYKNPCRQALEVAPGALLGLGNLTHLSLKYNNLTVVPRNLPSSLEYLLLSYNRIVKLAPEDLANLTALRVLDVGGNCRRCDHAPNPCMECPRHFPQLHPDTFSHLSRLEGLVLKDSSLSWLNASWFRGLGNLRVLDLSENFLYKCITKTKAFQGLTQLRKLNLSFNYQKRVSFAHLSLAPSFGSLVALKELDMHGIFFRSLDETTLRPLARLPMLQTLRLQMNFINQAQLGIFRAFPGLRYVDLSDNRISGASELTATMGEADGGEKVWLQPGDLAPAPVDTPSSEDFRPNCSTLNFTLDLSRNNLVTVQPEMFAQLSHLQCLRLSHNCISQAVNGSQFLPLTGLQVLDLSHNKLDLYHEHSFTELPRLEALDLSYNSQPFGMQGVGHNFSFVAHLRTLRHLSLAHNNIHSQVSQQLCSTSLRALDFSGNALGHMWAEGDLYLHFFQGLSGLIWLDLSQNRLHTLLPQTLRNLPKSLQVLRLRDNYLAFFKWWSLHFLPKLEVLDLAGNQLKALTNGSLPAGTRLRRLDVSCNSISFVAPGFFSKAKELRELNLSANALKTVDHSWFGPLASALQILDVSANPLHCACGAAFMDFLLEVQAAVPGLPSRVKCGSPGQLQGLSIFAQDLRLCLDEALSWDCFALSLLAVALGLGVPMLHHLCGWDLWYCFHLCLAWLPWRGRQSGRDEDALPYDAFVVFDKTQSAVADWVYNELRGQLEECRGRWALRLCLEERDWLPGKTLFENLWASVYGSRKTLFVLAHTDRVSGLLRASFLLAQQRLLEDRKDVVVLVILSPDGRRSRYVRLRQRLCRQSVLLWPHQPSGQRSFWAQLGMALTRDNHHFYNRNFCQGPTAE
# ASSAY_EXPLANATION: TLR9 inhibition reporter assay (HEK-Blue cells, SEAP reporter, ODN2006 stimulation)
# MEASUREMENT_SETUP: HEK-Blue cells overexpressing human TLR9, SEAP reporter, ODN2006 5 nM
OUTCOME_MEASURE: IC50 (nM)

A = COc1cc(-c2[nH]c3ccc(C4CCC(N5CC6(COC6)C5)CC4)cc3c2C(C)C)cn2ncnc12 (stereo not shown) [Example 73]
B = COc1cc(-c2[nH]c3ccc(C4CCC(N5CC[C@H](N(C)C)C5)CC4)cc3c2C(C)C)cn2ncnc12 (stereo partly shown) [Example 32]
C = COc1cc(-c2[nH]c3ccc(C4CCC(N5CC(O)C5)CC4)cc3c2C(C)C)cn2ncnc12 (single isomer, unassigned) [Example 20]
D = CCc1c(-c2ccc(OC)c(OC)c2)[nH]c2ccc(CN3CC4CNCC4C3)cc12 (stereo not shown)
E = COc1cc(-c2[nH]c3ccc(C4CCC(N(C)OC)CC4)cc3c2C(C)C)cn2ncnc12 (stereo not shown) [Example 100]
Input: In ascending order of recorded IC50, list the compounds from the set above. Please write the labels in the order that was asked for.
Output: B, C, D, A, E

P = COc1cc(-c2[nH]c3ccc(C4CCC(NCC(N)=O)CC4)cc3c2C(C)C)cn2ncnc12 (stereo not shown) [Example 107]
Q = Cc1c(-c2[nH]c3ccc(C4CCC(NC5COC5)CC4)cc3c2C(C)C)cn(C)c(=O)c1C (stereo not shown) [Example 478]
Input: Hi! Which is lower in terms of IC50, the first one P or the second one Q ? State the label of the item chosen.
Output: P

* * *

# ASSAYED_SYSTEM: human TLR9 (Homo sapiens, UniProt Q9NR96)
# ASSAY_EXPLANATION: TLR9 inhibition reporter assay (HEK-Blue cells, SEAP reporter, ODN2006 stimulation)
# MEASUREMENT_SETUP: HEK-Blue cells overexpressing human TLR9, SEAP reporter, ODN2006 5 nM
pIC50: −log10 of the molar value.
OUTCOME_MEASURE: pIC50

COc1cc(-c2[nH]c3ccc(C4CN(CCS(C)(=O)=O)C4)cc3c2C(C)C)cn2ncnc12: 5.47
Cc1c(-c2[nH]c3ccc(C4CCC(N(C)C)CC4)cc3c2C(C)C)cn2cnnc2c1C (stereo not drawn) [Example 529]: 5.04
COc1cc(-c2[nH]c3ccc(C4CN(C(=O)CN(C)C)CCO4)cc3c2C(C)C)cn2ncnc12 (stereo not drawn) [Example 334]: 5.56
Cc1cc(-c2[nH]c3ccc(CC4CCCN4CC(=O)N(C)C)cc3c2C(C)C)cn2ncnc12 (stereo not drawn): 4.95
Cc1c(-c2[nH]c3ccc(C4CN(CC5(C)COC5)C4)cc3c2C(C)C)cn2cnnc2c1C: 4.96
Cc1cc(-c2[nH]c3ccc(CCN4CCCC4)cc3c2C(C)C)cn(C)c1=O: 4.86

A = Cc1cc(-c2[nH]c3ccc(C4CCCN(C(=O)[C@@H]5CCN5)C4)cc3c2C(C)C)cc(C)n1 (stereo partly drawn) [Example 220]
B = COc1cc(-c2[nH]c3ccc(C4CC(N(C)C(=O)CN(C)C)C4)cc3c2C(C)C)cn2ncnc12 (stereo not drawn) [Example 588]
C = Cc1c(-c2[nH]c3ccc(C4CN(C5COC5)C4)cc3c2C(C)C)cn2ncnc2c1C
Input: Parameters: sort_field (pIC50), sort_dir (desc). Please write the labels in the order that was asked for.
Output: A, B, C

A = Cc1cc(-c2[nH]c3ccc(C4CN(C(=O)CN(C)C)CCO4)cc3c2C(C)C)cn2ncnc12 (stereo not drawn) [Example 328]
B = CC(C)c1c(-c2ccnc3[nH]ncc23)[nH]c2ccc(C3CCC(OC4CCNCC4)CC3)cc12 (stereo not drawn)
C = Cc1cc(-c2[nH]c3ccc(C4CCC(N5CCN(C)CC5)CC4)cc3c2C(C)C)cc(C)n1 (single isomer, unassigned) [Example 37]
D = Cc1cc(-c2[nH]c3ccc(C4CCC(O)CC4)cc3c2C(C)C)cc(C)n1 (single isomer, unassigned) [Example 172]
E = Cc1c(-c2[nH]c3ccc(C4CNCCO4)cc3c2C(C)C)cn2ncnc2c1C (stereo not drawn) [Example 287]
Input: Order the entries by their reported pIC50, beginning at the minimum. Please write the labels in the order that was asked for.
Output: D, A, E, C, B
(D: 4.80, A: 5.26, E: 5.59, C: 6.23, B: 6.50)

I = Cc1c(-c2[nH]c3ccc(C4CN(C(C)C)C4)cc3c2C(C)C)cn2ncnc2c1C
II = COc1cc(-c2[nH]c3ccc(C4CN(C)C(C)(C)CO4)cc3c2C(C)C)cn2ncnc12 (stereo not drawn)
Input: Hi! Which is lower in terms of pIC50, the first one I or the second one II ? State the label of the item chosen.
Output: I
(I: 5.11, II: 5.33)

A = COCCN1CC(c2ccc3[nH]c(-c4cc(C)c5ncnn5c4)c(C(C)C)c3c2)OCC1(C)C (stereo not drawn) [Example 382]
B = Cc1c(-c2[nH]c3ccc(C4CCCNC4)cc3c2C(C)C)cn2ncnc2c1C (stereo not drawn) [Example 190]
C = CC(C)c1c(-c2ccnc3[nH]ncc23)[nH]c2ccc(/C=C/C3CCNCC3)cc12
D = COc1cc(-c2[nH]c3ccc(C4CCC(NC(=O)CN(C)C5CC5)CC4)cc3c2C(C)C)cn2ncnc12 (stereo not drawn)
Input: Parameters: sort_field (pIC50), sort_dir (desc). Please write the labels in the order that was asked for.
Output: C, B, A, D

* * *

# ASSAYED_SYSTEM: human TLR7 (Homo sapiens)
# Sequence (Q9NYK1 27-1049): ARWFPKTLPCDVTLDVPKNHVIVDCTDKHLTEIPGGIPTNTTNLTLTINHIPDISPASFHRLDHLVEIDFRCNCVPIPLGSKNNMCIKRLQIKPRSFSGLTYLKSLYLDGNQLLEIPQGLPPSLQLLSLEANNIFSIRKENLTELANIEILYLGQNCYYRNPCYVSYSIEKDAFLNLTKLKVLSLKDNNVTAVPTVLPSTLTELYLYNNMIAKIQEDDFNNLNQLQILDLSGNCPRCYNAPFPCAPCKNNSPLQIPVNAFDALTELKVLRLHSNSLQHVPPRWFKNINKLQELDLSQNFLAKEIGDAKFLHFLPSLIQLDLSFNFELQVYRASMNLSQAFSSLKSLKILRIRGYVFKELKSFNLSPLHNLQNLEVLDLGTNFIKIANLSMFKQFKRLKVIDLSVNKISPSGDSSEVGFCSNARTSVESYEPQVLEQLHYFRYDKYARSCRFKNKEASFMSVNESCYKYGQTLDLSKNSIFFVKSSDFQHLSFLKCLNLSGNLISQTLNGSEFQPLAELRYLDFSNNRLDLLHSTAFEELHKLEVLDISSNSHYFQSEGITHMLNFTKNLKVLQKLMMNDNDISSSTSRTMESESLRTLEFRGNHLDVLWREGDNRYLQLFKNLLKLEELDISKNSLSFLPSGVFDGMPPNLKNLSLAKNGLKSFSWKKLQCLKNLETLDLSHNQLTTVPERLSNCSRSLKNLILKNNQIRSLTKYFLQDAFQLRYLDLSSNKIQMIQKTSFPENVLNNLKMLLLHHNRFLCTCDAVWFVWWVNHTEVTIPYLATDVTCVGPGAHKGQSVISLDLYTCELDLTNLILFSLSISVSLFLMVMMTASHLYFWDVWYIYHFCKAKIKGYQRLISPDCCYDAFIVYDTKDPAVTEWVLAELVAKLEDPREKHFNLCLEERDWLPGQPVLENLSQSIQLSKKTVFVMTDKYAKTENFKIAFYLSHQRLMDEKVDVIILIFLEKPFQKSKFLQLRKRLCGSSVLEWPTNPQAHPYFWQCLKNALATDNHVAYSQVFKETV
# ASSAY_EXPLANATION: TLR7 inhibition reporter assay (HEK-Blue cells, SEAP reporter, gardiquimod stimulation)
# MEASUREMENT_SETUP: HEK-Blue cells overexpressing human TLR7, SEAP reporter, gardiquimod 7.5 μM
pIC50: −log10 of the molar value.
OUTCOME_MEASURE: pIC50

Cc1cc(-c2[nH]c3ccc(C4CCCN(C(=O)C5C(C)(C)C5(C)C)C4)cc3c2C(C)C)cc(C)n1 (stereo not drawn) [Example 200]: 7.40
COc1cc(-c2[nH]c3ccc(C4CCC(N5CCNC(=O)C5)CC4)cc3c2C(C)C)cn2ncnc12 (stereo not drawn) [Example 78]: 8.52
Cc1c(-c2[nH]c3ccc(C4CCC(N5CC(F)(F)C5)CC4)cc3c2C(C)C)cn2ncnc2c1C (stereo not drawn) [Example 24]: 8.15
COc1cc(-c2[nH]c3ccc(C4CC(NCC(=O)N(C)C)C4)cc3c2C(C)C)cn2ncnc12 (stereo not drawn) [Example 570]: 9.03
Cc1cc(-c2[nH]c3ccc(C4CCC(NC5CC5)CC4)cc3c2C(C)C)cn2ncnc12 (single isomer, unassigned) [Example 16]: 9.82

P = COc1cc(-c2[nH]c3ccc(C4CC(NC(=O)CN(C)C)C4)cc3c2C(C)C)cn2ncnc12 (stereo not drawn) [Example 569]
Q = COc1cc(-c2[nH]c3ccc(C4CN(CC(=O)N(C)C)C4)cc3c2C(C)C)cn2ncnc12 [Example 262]
Input: Thinking about recorded pIC50 values, which is higher, P or Q ? State the label of the item chosen.
Output: P
(P: 9.49, Q: 6.21)

1 = Cc1c(-c2[nH]c3ccc(C4CC(N(C)C(=O)CN(C)C)C4)cc3c2C(C)C)cn2ncnc2c1C (stereo not drawn) [Example 584]
2 = Cc1c(-c2[nH]c3ccc(C4CN(CC(=O)N(C)C)CCO4)cc3c2C(C)C)cn2ncnc2c1C (stereo not drawn) [Example 321]
3 = Cc1c(-c2[nH]c3ccc(CC4CNC4)cc3c2C(C)C)cn(C)c(=O)c1C [Example 417]
4 = COc1cc(-c2[nH]c3ccc(C4CNC(C)(C)CO4)cc3c2C(C)C)cn2ncnc12 (stereo not drawn) [Example 369]
5 = COc1cc(-c2[nH]c3ccc(C4CCC(NC5(C)CC5)CC4)cc3c2C(C)C)cn2ncnc12 (stereo not drawn) [Example 42]
Input: Order the entries by their reported pIC50, beginning at the minimum. Please write the labels in the order that was asked for.
Output: 3, 2, 1, 4, 5

A = Cc1c(-c2[nH]c3ccc(C4CC(N(C)C(=O)CN(C)C)C4)cc3c2C(C)C)cn2ncnc2c1C (stereo not drawn) [Example 589]
B = Cc1cc(-c2[nH]c3ccc(C4CN(C5COC5)C4)cc3c2C(C)C)cn2ncnc12 [Example 271]
Input: Thinking about recorded pIC50 values, which is higher, A or B ? State the label of the item chosen.
Output: A
(A: 8.70, B: 8.30)

a = Cc1cc(-c2[nH]c3ccc(C4CN(C5COC5)CCO4)cc3c2C(C)C)cc(C)n1 (stereo not drawn) [Example 304]
b = Cc1c(-c2[nH]c3ccc(C4CCC(N5CC6(COC6)C5)CC4)cc3c2C(C)C)cn2ncnc2c1C (stereo not drawn) [Example 95]
c = Cc1c(-c2[nH]c3ccc(C4CCC(NCC(=O)N(C)C)CC4)cc3c2C(C)C)cn(C)c(=O)c1C (stereo not drawn) [Example 479]
Input: Parameters: sort_field (pIC50), sort_dir (desc). Please write the labels in the order that was asked for.
Output: b, c, a
(b: 8.70, c: 8.30, a: 7.05)
